Numbers sourced from PubChem BioAssay (NCI).

- System: TK-10 renal
- assay info: NCI-60 one-dose screen, 48 h
- measurement conditions: 10 µM unless noted
This is part of a sample that, as a whole, favours compounds with a hit. Of some 83,000 tested, about 20% had one in any assay. Activity calls are given as the source filed them. How the source made its calls: active means growth percent below 10; inactive means the rest.
Valid outcomes are listed here; reply with one: active, inactive

Take a look at these entries with their results.
[
  {
    "molecule": "N#Cc1c(-c2ccc(F)cc2)cc(-c2cccc(Cl)c2)[nH]c1=O",
    "label value": "inactive"
  },
  {
    "molecule": "O=C1OCC2=C1C(c1cccc(F)c1)c1cc3c(cc1N2CCO)CCC3 (stereo not given)",
    "label value": "inactive"
  },
  {
    "molecule": "C=CCn1c(SCC(=O)Nc2ccc(C(=O)/C=C/c3ccc(Cl)cc3)cc2)nnc1-c1ccccc1",
    "label value": "inactive"
  },
  {
    "molecule": "Nc1cc(-c2ccc(Cl)cc2)nn1-c1nc(-c2ccc(Br)cc2)cs1",
    "label value": "inactive"
  },
  {
    "molecule": "Cc1ccc(-c2nc(C#N)c(S(=O)(=O)n3nc(C)cc3N)o2)cc1",
    "label value": "active"
  }
]

Just curious, what result did `C=CC(=O)NCc1cccc(Nc2ncc(Br)c(NCCCNC(=O)C3CCC3)n2)c1` get here?
active

Just curious, what result did COc1ccc(C2CC(=O)Oc3c(OC)c4c(c(OC)c32)OCO4)cc1 (stereo not given) get here?
inactive

Just curious, what result did `Oc1ccc(Cc2ccc(O)c3ncccc23)c2cccnc12` get here?
active

Just curious, what result did `COc1ccc(/C(C)=C(\c2ccc(Cl)cc2)c2ccc(OCCCN(C)C)cc2)cc1` get here?
inactive

Just curious, what result did `O=C(/C=C/c1ccco1)Nc1ncc(Cc2ccc(F)cc2)s1` get here?
inactive
